Cited source: ChEMBL document CHEMBL4665729

# experimental.details: Inhibition of SARS-CoV-2 main protease expressed in expressed in BL21(DE3) Escherichia Coli […] by FRET assay
# Set-up: species or system Severe acute respiratory syndrome coronavirus 2
assay.metric: pEC50
Bear in mind: pEC50 is minus log10 of a mol/L concentration; give just that figure.

May I ask what pEC50 has been recorded for CC(C)(C)NC(=O)N[C@H](C(=O)N1C[C@H]2[C@@H]([C@H]1C(=O)NC(CC1CCC1)C(=O)C(N)=O)C2(C)C)C(C)(C)C (stereo partly specified) ?
5.88
